Entries and their measured % inhibition at 100 µM follow.
Target: Urokinase from human urine (human, UniProt P00749 21-431, limits assumed)
Test: cell-based or functional assay
Answer with a number only, understood to be in %.

Worked cases, % inhibition at 100 µM given:
RCTKSDPPICF (HELM PEPTIDE1{R.C.T.K.S.D.P.P.I.C.F.[dP].P}$PEPTIDE1,PEPTIDE1,2:R3-10:R3|PEPTIDE1,PEPTIDE1,1:R1-13:R2$$$V2.0; SMILES CC[C@H](C)[C@@H]1NC(=O)[C@@H]2CCCN2C(=O)[C@@H]2CCCN2C(=O)[C@H](CC(=O)O)NC(=O)[C@H](CO)NC(=O)[C@H](CCCCN)NC(=O)[C@H]([C@@H](C)O)NC(=O)[C@@H]2CSSC[C@H](NC1=O)C(=O)N[C@@H](Cc1ccccc1)C(=O)N1CCC[C@@H]1C(=O)N1CCC[C@H]1C(=O)N[C@@H](CCCNC(=N)N)C(=O)N2) [Example 75]; 5.7
XCTKSDPPICY (HELM PEPTIDE1{[Cha].C.T.K.S.D.P.P.I.C.Y.[dP].P}$PEPTIDE1,PEPTIDE1,2:R3-10:R3|PEPTIDE1,PEPTIDE1,1:R1-13:R2$$$V2.0; SMILES CC[C@H](C)[C@@H]1NC(=O)[C@@H]2CCCN2C(=O)[C@@H]2CCCN2C(=O)[C@H](CC(=O)O)NC(=O)[C@H](CO)NC(=O)[C@H](CCCCN)NC(=O)[C@H]([C@@H](C)O)NC(=O)[C@@H]2CSSC[C@H](NC1=O)C(=O)N[C@@H](Cc1ccc(O)cc1)C(=O)N1CCC[C@@H]1C(=O)N1CCC[C@H]1C(=O)N[C@@H](CC1CCCCC1)C(=O)N2) [Example 36]; 0
FCTKSEPPICT (HELM PEPTIDE1{F.C.T.K.S.E.P.P.I.C.T.[dP].P}$PEPTIDE1,PEPTIDE1,2:R3-10:R3|PEPTIDE1,PEPTIDE1,1:R1-13:R2$$$V2.0; SMILES CC[C@H](C)[C@@H]1NC(=O)[C@@H]2CCCN2C(=O)[C@@H]2CCCN2C(=O)[C@H](CCC(=O)O)NC(=O)[C@H](CO)NC(=O)[C@H](CCCCN)NC(=O)[C@H]([C@@H](C)O)NC(=O)[C@@H]2CSSC[C@H](NC1=O)C(=O)N[C@@H]([C@@H](C)O)C(=O)N1CCC[C@@H]1C(=O)N1CCC[C@H]1C(=O)N[C@@H](Cc1ccccc1)C(=O)N2) [Example 1]; 5.7

Could you now consider this next binder?
Prompt line: Supply % inhibition at 100 µM value. Item: FCTKSDPPXCS (HELM PEPTIDE1{F.C.T.K.S.D.P.P.[Cha].C.S.[dP].P}$PEPTIDE1,PEPTIDE1,2:R3-10:R3|PEPTIDE1,PEPTIDE1,1:R1-13:R2$$$V2.0; SMILES C[C@@H](O)[C@@H]1NC(=O)[C@@H]2CSSC[C@H](NC(=O)[C@H](CC3CCCCC3)NC(=O)[C@@H]3CCCN3C(=O)[C@@H]3CCCN3C(=O)[C@H](CC(=O)O)NC(=O)[C@H](CO)NC(=O)[C@H](CCCCN)NC1=O)C(=O)N[C@@H](CO)C(=O)N1CCC[C@@H]1C(=O)N1CCC[C@H]1C(=O)N[C@@H](Cc1ccccc1)C(=O)N2) [Example 54]
Response line: 3.2
